system: human NPY1 receptor (Homo sapiens, UniProt P25929)
Construct: expressed in transfected cells
Sequence (P25929 1-384): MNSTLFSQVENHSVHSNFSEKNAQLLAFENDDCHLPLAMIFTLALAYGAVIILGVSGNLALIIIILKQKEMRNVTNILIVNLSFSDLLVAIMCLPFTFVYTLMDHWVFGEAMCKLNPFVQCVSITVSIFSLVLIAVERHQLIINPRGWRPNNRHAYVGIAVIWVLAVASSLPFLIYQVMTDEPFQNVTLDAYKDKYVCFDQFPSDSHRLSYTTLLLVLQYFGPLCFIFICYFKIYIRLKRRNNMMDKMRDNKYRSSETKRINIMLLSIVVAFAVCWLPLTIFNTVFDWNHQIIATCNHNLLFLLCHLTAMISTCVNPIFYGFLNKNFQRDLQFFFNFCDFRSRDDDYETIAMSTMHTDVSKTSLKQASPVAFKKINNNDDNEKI
testProtocol: Binding affinity at the human NPY1 receptor
assaySetup: Table 3b; read-out: hNPY1 Ki
pKi: −log10 of the molar value.
propertyMeasured: pKi

Query block: Assign pKi to the following record: 2-(3,4-DIFLUOROPHENYL)4,5-DIHYDROIMIDAZOLE-1-CARBOXYLIC ACID {3-[4-PHENYL-4-(4-BROMO-5-METHYLTHIOPNEN-2-YL)]-PROPYL}-AMIDE [Example 19]
Result block: < 4.30

* * *

system: rat MCH1 receptor (Rattus norvegicus)
Construct: expressed in transfected cells
Sequence (P97639 whole entry): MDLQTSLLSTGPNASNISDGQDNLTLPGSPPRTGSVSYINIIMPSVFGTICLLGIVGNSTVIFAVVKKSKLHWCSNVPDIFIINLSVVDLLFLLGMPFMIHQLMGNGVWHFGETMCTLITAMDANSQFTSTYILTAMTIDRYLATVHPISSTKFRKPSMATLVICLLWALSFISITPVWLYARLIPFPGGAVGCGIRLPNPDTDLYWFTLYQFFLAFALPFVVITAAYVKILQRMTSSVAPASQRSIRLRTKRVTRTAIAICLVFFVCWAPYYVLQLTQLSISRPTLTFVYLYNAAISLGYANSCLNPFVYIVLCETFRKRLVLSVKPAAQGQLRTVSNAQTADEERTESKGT
testProtocol: Binding affinity (Ki) at the rat MCH1 receptor
assaySetup: Table 3c; read-out: rMCH1 Ki
For each of the molecules below, state its Ki.
Give a bare numeral; the unit nM is implied.

Query block: Provide measured Ki on rat MCH1 receptor (Rattus norvegicus) for "CC(=O)Nc1cccc(C2CCN(CCCC(=O)c3ccc(C(C)C)cc3)CC2)c1" please.
Result block: 382

Query block: Report Ki from rat MCH1 receptor (Rattus norvegicus) testing of "CC(C)C(=O)Nc1cccc(C2CCN(CC[C@H](Oc3ccc(C#N)cc3)c3ccccc3)CC2)c1"
Result block: 20.1

Query block: Please report Ki with rat MCH1 receptor (Rattus norvegicus) for item "Cc1ccc(C(=O)CCCN2CCC(c3cccc(NC(=O)C(C)C)c3)CC2)cc1C" .
Result block: 3.9

Query block: For rat MCH1 receptor (Rattus norvegicus), give Ki of the listed molecule: COC(CCN1CCC(c2cccc(NC(=O)C(C)C)c2)CC1)c1ccc(C)cc1 (stereo not shown)
Result block: 12

Query block: Give Ki; test system rat MCH1 receptor (Rattus norvegicus); molecule CCC1=C(C(=O)OCc2ccccc2)C(c2ccc(F)cc2F)N(C(=O)NCCCN2CCC(c3cccc(NC(C)=O)c3)CC2)C(=O)N1 (stereo not shown)
Result block: 0.81

Query block: Look up and report Ki, with rat MCH1 receptor (Rattus norvegicus) as system, for "CC(C)C(=O)Nc1cccc(C2CCN(CCCCN3C(=O)c4ccccc4C3=O)CC2)c1"
Result block: 18.2

Query block: Return reported Ki for target or system rat MCH1 receptor (Rattus norvegicus), item "CC(C)C(=O)Nc1cccc(C2CCN(CC[C@H](Oc3cc(C(F)(F)F)ccc3F)c3ccccc3)CC2)c1" .
Result block: 3.3

Query block: # lookup: rat MCH1 receptor (Rattus norvegicus) Ki, key = "CC(C)C(=O)Nc1cccc(C2CCN(CC[C@H](Oc3ccc(C(F)(F)F)cc3)c3ccccc3)CC2)c1"
Result block: 7.1

Query block: Recall the reported Ki of "CC(C)C(=O)Nc1cccc(C2CCN(CC[C@H](Oc3cccc(Cl)c3)c3ccccc3)CC2)c1" when tested on rat MCH1 receptor (Rattus norvegicus).
Result block: 3.1

Query block: Provide Ki, system rat MCH1 receptor (Rattus norvegicus), entry "COc1cccc(O[C@@H](CCN2CCC(c3cccc(NC(=O)C(C)C)c3)CC2)c2ccccc2)c1"
Result block: 13.6

Query block: Return reported Ki for target or system rat MCH1 receptor (Rattus norvegicus), item "CC(C)C(=O)Nc1cccc(C2CCN(CC[C@H](Oc3ccc(Cl)cc3)c3ccccc3)CC2)c1" .
Result block: 3.8

Query block: Provide the reported Ki (system: rat MCH1 receptor (Rattus norvegicus)) for "CC(C)S(=O)(=O)Nc1cccc(C2CCN(CCCC(=O)c3ccc(Oc4ccccc4)cc3)CC2)c1"
Result block: 651

Query block: Given CC(=O)Nc1cccc(C2CCN(CCCNC(=O)N3C(=O)NC4=C(C(=O)OC4)C3c3ccc4c(c3)OCO4)CC2)c1 (stereo not shown) , report its Ki on rat MCH1 receptor (Rattus norvegicus).
Result block: 50.8

Query block: Determine reported Ki for CC(=O)Nc1cccc(C2CCN(CCCNC(=O)N3C(=O)NC(C)=C(C(C)=O)C3c3cc(F)c(F)c(F)c3)CC2)c1 (stereo not shown) ; test system: rat MCH1 receptor (Rattus norvegicus).
Result block: 0.79

Query block: System rat MCH1 receptor (Rattus norvegicus). Read-out Ki. Item "CCS(=O)(=O)Nc1cccc(C2CCN(CCCC(=O)c3ccc(Cl)cc3)CC2)c1" . Report value.
Result block: 272

Query block: Please report the measured Ki for "CN(C)S(=O)(=O)Nc1cccc(C2CCN(CCCC(=O)c3ccc(Cl)cc3)CC2)c1" tested on rat MCH1 receptor (Rattus norvegicus).
Result block: 511
